meta.source: PubChem BioAssay (EPA / NIEHS)

- systemUnderTest: Nuclear receptor subfamily 1 group I member 2 (Homo sapiens) (UniProt O75469)
- Sequence (O75469 whole entry, looked up): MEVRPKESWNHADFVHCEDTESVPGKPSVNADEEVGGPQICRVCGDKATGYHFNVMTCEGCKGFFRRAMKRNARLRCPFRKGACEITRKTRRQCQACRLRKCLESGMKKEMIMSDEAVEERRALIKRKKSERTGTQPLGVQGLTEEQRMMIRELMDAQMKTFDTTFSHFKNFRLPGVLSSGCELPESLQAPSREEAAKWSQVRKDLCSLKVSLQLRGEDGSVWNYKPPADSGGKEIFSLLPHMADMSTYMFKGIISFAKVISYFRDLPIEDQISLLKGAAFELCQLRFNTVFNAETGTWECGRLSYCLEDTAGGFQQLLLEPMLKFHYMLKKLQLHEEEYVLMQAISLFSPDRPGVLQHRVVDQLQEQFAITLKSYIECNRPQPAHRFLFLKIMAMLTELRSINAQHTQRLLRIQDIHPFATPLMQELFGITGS
- testDescription: ATG_PXR_TRANS: Attagene TRANS-FACTORIAL HepG2 Assay for human Pregnane X Receptor (PXR) (AID 2283008)
Records with an inconclusive call do not appear. The source made the active and inactive calls. Rule for the calls: active = hit-call score of the fitted dose curve at least 0.9, where 1 is the maximum; inconclusive = response in the unintended direction; inactive = score below 0.9.
Outcome codes: 1 = active, -1 = inactive

| molecule | className |
| --- | --- |
| CCCCOC(=O)CCCCC(=O)OCCCC | -1 |
| NC1CCCCC1 | -1 |
| N[C@@H](Cc1c[nH]c2ccccc12)C(=O)O | -1 |
| CC(C)OC(=O)C(C)(C)Oc1ccc(C(=O)c2ccc(Cl)cc2)cc1 | 1 |
| NC(=Nc1ccccc1)Nc1ccccc1 | -1 |
| Cc1c(C)c2c(c(C)c1O)CCC(C)(COc1ccc(CC3SC(=O)NC3=O)cc1)O2 (stereo not drawn) | 1 |
| COc1ccc(C(=O)Nc2nc3ccccc3c(NCc3ccccc3)c2C#N)cc1 | 1 |
| O=C(O)c1cccnc1 | -1 |

* * *

- Read-out: Interleukin-8 (IL8), CXCL8 (gene 3576)
- testDescription: BSK_3C_IL8: BioMAP Diversity Plus: 3C Assay for Interleukin-8 (IL8) Biomarker Activity (AID 2283020)
- details: primary human endothelial cells (HUVEC); actives raise or lower the signal
Active and inactive are the calls of the source. The calls were made as follows: active = hit-call score of the fitted dose curve at least 0.9, where 1 is the maximum; inactive = score below 0.9.
Outcome codes: Yes = active, No = inactive

| compound | className |
| --- | --- |
| CC(COCC(C)OC(=O)c1ccccc1)OC(=O)c1ccccc1 (stereo not drawn) | No |
| CN(C)CCCN1c2ccccc2Sc2ccc(Cl)cc21 | Yes |
| CCCCC(CC)COC(=O)CCCCCCCC(=O)OCC(CC)CCCC (stereo not drawn) | No |

* * *

- Read-out: Urokinase-type plasminogen activator receptor (uPAR), PLAUR (gene 5329)
- testDescription: BSK_CASM3C_uPAR: BioMAP Diversity Plus: CASM3C Assay for Urokinase-type plasminogen activator receptor (uPAR) Biomarker Activity (AID 2283054);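 note: cell-surface uPAR protein level quantified by ELISA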
- details: primary human coronary artery smooth muscle cells; actives raise or lower the signal
Activity calls are given as the source filed them. The calls were made as follows: active = hit-call score of the fitted dose curve at least 0.9, where 1 is the maximum; inactive = score below 0.9.
Outcome codes: y (active), n (inactive)

| cpdSmiles | className |
| --- | --- |
| CC(=O)OCC(COC(C)=O)OC(C)=O | n |
| COc1ccc(OC(F)(F)F)cc1CN[C@H]1CCCN[C@H]1c1ccccc1 | n |
| CC(C)c1cccc(C(C)C)c1NC(=O)NS(=O)(=O)c1cc(C(C)(C)O)co1 | n |
| C=CCCCCCCCCCCCC | n |
| CCCC(=O)O | n |
| CCN(CC)CCOc1ccc(C(=C(Cl)c2ccccc2)c2ccccc2)cc1 | y |
| C=CCc1ccc(OC)c(OC)c1 | n |
| CCc1nc(N)nc(N)c1-c1ccc(Cl)cc1 | n |
| O=NO | n |
| O=Cc1ccccc1C=O | n |
| CN(C)CCCN1c2ccccc2Sc2ccc(Cl)cc21 | y |

* * *

- Read-out: Interleukin-8 (IL8), CXCL8 (gene 3576)
- testDescription: BSK_3C_IL8: BioMAP Diversity Plus: 3C Assay for Interleukin-8 (IL8) Biomarker Activity (AID 2283020)
- details: primary human endothelial cells (HUVEC); actives raise or lower the signal
Calls of active or inactive are those of the source. How the source made its calls: active means hit-call score of the fitted dose curve at least 0.9, where 1 is the maximum; inactive means score below 0.9.
Outcome codes: Yes = active, No = inactive

| molecule | className |
| --- | --- |
| Cc1cn([C@H]2C=C[C@@H](CO)O2)c(=O)[nH]c1=O | No |
| NC=O | No |
| Cn1cnc2c1c(=O)[nH]c(=O)n2C | No |
| OCC(CO)n1cnc(-c2ccc(F)cc2)c1-c1ccnc(Oc2ccccc2)n1 | Yes |
| CC(=O)OC1CC(C)OC(C)O1 (centres undefined) | No |
| COc1ccc(OC(F)(F)F)cc1CN[C@H]1CCCN[C@H]1c1ccccc1 | No |
| CCCCCCC(CCCCCCCCCCC(=O)OCC(COC(C)=O)OC(C)=O)OC(C)=O (centres undefined) | No |
| NC(=Nc1ccccc1)Nc1ccccc1 | No |
| C=CCCCCCCCCCCCC | No |
| COC(=O)CCC(=O)OC | No |
| O=C(NS(=O)(=O)/C=C/c1cccs1)c1ccc(F)cc1Br | No |
| C#CC(O)C(CC)CCCC (centres undefined) | No |
| Oc1ccccc1O | No |
| N[C@@H](Cc1c[nH]c2ccccc12)C(=O)O | No |
| CC(=O)CC(c1ccccc1)c1c(O)c2ccccc2oc1=O (centres undefined) | No |
| CC(C)NCC(O)c1ccc(O)c(O)c1 (centres undefined) | No |
| O=C1NC(=O)C(c2ccccc2)(c2ccccc2)N1 | No |
| Nc1nc(Cl)nc2c1ncn2[C@H]1C[C@H](O)[C@@H](CO)O1 | No |
| NC1CCCCC1 | No |
| Cc1cc(SC2=C(O)C[C@@](CCc3ccc(N)cc3)(C(C)C)OC2=O)c(C(C)(C)C)cc1CO | No |
| CCCC[C@H]1CN(CC2CCOCC2)C(=O)OC12CCN(C1(C)CCN(C(=O)c3c(C)ncnc3C)CC1)CC2 | No |
| COC(=O)CCCC(=O)OC | No |
| O=C1OC(c2ccc(O)cc2)(c2ccc(O)cc2)c2ccccc21 | No |
| CCC(C)N(C)C(=O)c1cc2ccccc2c(-c2ccccc2Cl)n1 (centres undefined) | No |

* * *

- testDescription: BSK_LPS_PGE2: BioMAP Diversity Plus: LPS Assay for Prostaglandin E2 (PGE2) Biomarker Activity (AID 2283082)
- details: primary human HUVEC with PBMC; actives raise or lower the signal
- Experimental: BSK_LPS is a cell-based, multiplexed-readout assay that uses umbilical vein endothelium and peripheral blood mononuclear cells, a human vascular primary cell co-culture, with measurements taken at 24 hours after chemical dosing in a 96-well plate.BSK_LPS_PGE2 is an assay component measured in the BSK_LPS assay. It measures PGE2 antibody related to regulation of gene expression using ELISA technology.Data from the assay component BSK_LPS_PGE2 was analyzed into 1 assay endpoint. […]
Calls of active or inactive are those of the source. How the source made its calls: active means hit-call score of the fitted dose curve at least 0.9, where 1 is the maximum; inactive means score below 0.9.
Outcome codes: 1 (active), 0 (inactive)

| compound | className |
| --- | --- |
| CC(C)(O)c1ccc(CNC(=O)c2cccnc2Oc2ccc(F)cc2)cc1 | 0 |
| CC(C)(C)c1ccccc1 | 0 |
| CC(C)c1cccc(C(C)C)c1NC(=O)NS(=O)(=O)c1cc(C(C)(C)O)co1 | 1 |
| CC(C)COC(=O)CCCCC(=O)OCC(C)C | 0 |
| CC(COCC(C)OC(=O)c1ccccc1)OC(=O)c1ccccc1 (configuration not stated) | 0 |
| CC(C)c1cccc(C(C)C)c1 | 0 |
| CCCCC(CC)COC(=O)CCCCCCCC(=O)OCC(CC)CCCC (configuration not stated) | 0 |
| Cc1c(C)c2c(c(C)c1O)CCC(C)(COc1ccc(CC3SC(=O)NC3=O)cc1)O2 (configuration not stated) | 1 |
| CCCC[C@H]1CN(CC2CCOCC2)C(=O)OC12CCN(C1(C)CCN(C(=O)c3c(C)ncnc3C)CC1)CC2 | 0 |
| CCOCCOCCO | 0 |
| CC(=O)[C@@]1(O)CC[C@H]2[C@@H]3CCC4=CC(=O)CC[C@]4(C)[C@H]3CC[C@@]21C | 0 |
| Cc1cc(SC2=C(O)C[C@@](CCc3ccc(N)cc3)(C(C)C)OC2=O)c(C(C)(C)C)cc1CO | 0 |
| Cc1cn([C@H]2C=C[C@@H](CO)O2)c(=O)[nH]c1=O | 0 |
| Cc1cc(Cc2ccc(N)c(C)c2)ccc1N | 0 |
| CCC(C)N(C)C(=O)c1cc2ccccc2c(-c2ccccc2Cl)n1 (configuration not stated) | 0 |
| CN(C)CCCN(C)CCCN(C)C | 0 |
| NCCOCCOCCN | 0 |
| CCCCOC(=O)CCCCC(=O)OCCCC | 0 |
| CC(=O)CC(c1ccccc1)c1c(O)c2ccccc2oc1=O (configuration not stated) | 0 |
| O=C1O[C@H]([C@H](O)CO)C(O)=C1O | 0 |
| CS(=O)(=O)c1ccc([C@@H](C[C@H]2CCC(=O)C2)C(=O)Nc2cnccn2)cc1Cl | 0 |
| CCCCc1nc2cccnc2n1Cc1ccc(-c2ccccc2-c2nnn[nH]2)cc1 | 0 |
| O=C1OC(c2ccc(O)cc2)(c2ccc(O)cc2)c2ccccc21 | 0 |
| N[C@@H](Cc1c[nH]c2ccccc12)C(=O)O | 0 |
| COC(=O)CCC(=O)OC | 0 |
| CCCCCCCCCC[N+](C)(C)[O-] | 0 |
| Oc1ccccc1O | 1 |
| CCCCCCCCCCCCCCOS(=O)(=O)O | 0 |
| S=c1[nH]c2ccccc2s1 | 1 |
| O=C(O)CN(CC(=O)O)CC(=O)O | 0 |
| CN(C)C(=O)NC1(c2ccccc2)CCN(CCC[C@]2(c3ccc(Cl)c(Cl)c3)CCCN(C(=O)c3ccccc3)C2)CC1 | 0 |
| CC(C)OC(=O)C(C)(C)Oc1ccc(C(=O)c2ccc(Cl)cc2)cc1 | 0 |
| Nc1nc(Cl)nc2c1ncn2[C@H]1C[C@H](O)[C@@H](CO)O1 | 0 |
| O=C(O)CC(O)(CC(=O)O)C(=O)O | 0 |
| CCCCCCC(CCCCCCCCCCC(=O)OCC(COC(C)=O)OC(C)=O)OC(C)=O (configuration not stated) | 0 |
| C=CCc1ccc(OC)c(OC)c1 | 0 |
| CC(=O)OCC(COC(C)=O)OC(C)=O | 0 |
| OCC(O)CO | 0 |
| COC(=O)CCCC(=O)OC | 0 |
| O=[Si]=O | 0 |
| CC(C)NCC(O)c1ccc(O)c(O)c1 (configuration not stated) | 0 |
| CCc1cc(C2=C(C(=O)O)N(c3ccccc3C(F)(F)F)S(=O)(=O)c3ccccc32)cc2c1OCO2 | 0 |
